target: GABA-A receptor; alpha-1/beta-3/gamma-2 (Homo sapiens) (UniProt P14867+P18507+P28472); experiment: Modulatory effect on coapplication with GABA at human Gamma-aminobutyric acid A receptor alpha-1-beta-3-gamma-2 in Xenopus oocyte. Also: test concentration or dose not given here.
endpoint name: percent modulation of GABA EC20 response (%)
The figure you give is taken to be in %; do not add the unit.

Report percent modulation of GABA EC20 response under test system GABA-A receptor; alpha-1/beta-3/gamma-2 (Homo sapiens) (UniProt P14867+P18507+P28472) for COc1ccc(-c2cc(-c3nc(C4CC4)cs3)c(=O)n(C)c2-c2ccncc2)cc1 . 29

Report percent modulation of GABA EC20 response under test system GABA-A receptor; alpha-1/beta-3/gamma-2 (Homo sapiens) (UniProt P14867+P18507+P28472) for COC(=O)c1cc(-c2ccc(OC)cc2)c(-c2ccncc2)n(C)c1=O . 3

Report percent modulation of GABA EC20 response under test system GABA-A receptor; alpha-1/beta-3/gamma-2 (Homo sapiens) (UniProt P14867+P18507+P28472) for COc1ccc(-c2cc(C#N)c(=O)n(C)c2-c2ccc(N(C)C)cc2)cc1 . 7

Report percent modulation of GABA EC20 response under test system GABA-A receptor; alpha-1/beta-3/gamma-2 (Homo sapiens) (UniProt P14867+P18507+P28472) for Cc1csc(-c2cc(-c3ccncc3)c(-c3ccncc3)n(C)c2=O)n1 . -23

Report percent modulation of GABA EC20 response under test system GABA-A receptor; alpha-1/beta-3/gamma-2 (Homo sapiens) (UniProt P14867+P18507+P28472) for COc1ccc(-c2cc(-c3nc(C)cs3)c(=O)n(C)c2-c2ccncc2)cc1 . 7

Report percent modulation of GABA EC20 response under test system GABA-A receptor; alpha-1/beta-3/gamma-2 (Homo sapiens) (UniProt P14867+P18507+P28472) for Cc1csc(-c2cc(-c3ccc(F)cc3)c(-c3ccncc3)n(C)c2=O)n1 . 57

Report percent modulation of GABA EC20 response under test system GABA-A receptor; alpha-1/beta-3/gamma-2 (Homo sapiens) (UniProt P14867+P18507+P28472) for COc1ccc(-c2cc(-c3noc(C)n3)c(=O)n(C)c2-c2ccncc2)cc1 . 111

Report percent modulation of GABA EC20 response under test system GABA-A receptor; alpha-1/beta-3/gamma-2 (Homo sapiens) (UniProt P14867+P18507+P28472) for COc1ccc(-c2cc(-c3nccs3)c(=O)n(C)c2-c2ccncc2)cc1 . 56

Report percent modulation of GABA EC20 response under test system GABA-A receptor; alpha-1/beta-3/gamma-2 (Homo sapiens) (UniProt P14867+P18507+P28472) for COc1ccc(-c2cc(-c3noc(C4CC4)n3)c(=O)n(C)c2-c2ccncc2)cc1 . 120

Report percent modulation of GABA EC20 response under test system GABA-A receptor; alpha-1/beta-3/gamma-2 (Homo sapiens) (UniProt P14867+P18507+P28472) for COc1ccc(-c2cc(-c3nc(C)ns3)c(=O)n(C)c2-c2ccncc2)cc1 . 117
